- assay summary: Logarithm of water solubility was reported
- Assay type: ADME
- particulars: buffer
experimental endpoint: log S
Form field: result (number plus unit)

According to the records, this molecule `CCCCCCCCCC(=O)O[C@@H]1CC(=O)O[C@H]1CO` displays log S of -0.54 M/m3

Entry `CCCCCCCCCCCCCC(=O)O[C@@H]1CC(=O)O[C@H]1CO` — recorded log S = -2.62 M/m3

Per the record, `O=C1C[C@@H](OC(=O)c2cccc3ccccc23)[C@H](CO)O1` has log S of -0.18 M/m3

// recorded log S for CCCCCCCCCCC(CCCCCCC(=O)O[C@@H]1CC(=O)O[C@H]1CO)c1ccccc1 (stereo not given in full) : -6.91 M/m3

The reported value for CCCCCCCCCCC(CCCC)CCCCCCC(=O)O[C@@H]1CC(=O)O[C@H]1CO (stereo not given in full) in terms of log S is -6.46 M/m3
